- Assayed system: Maxi-K α1/β4 (Homo sapiens)
- Construct: expressed in transfected cells; host or cells: HEK293
- Sequence (Q12791 whole entry): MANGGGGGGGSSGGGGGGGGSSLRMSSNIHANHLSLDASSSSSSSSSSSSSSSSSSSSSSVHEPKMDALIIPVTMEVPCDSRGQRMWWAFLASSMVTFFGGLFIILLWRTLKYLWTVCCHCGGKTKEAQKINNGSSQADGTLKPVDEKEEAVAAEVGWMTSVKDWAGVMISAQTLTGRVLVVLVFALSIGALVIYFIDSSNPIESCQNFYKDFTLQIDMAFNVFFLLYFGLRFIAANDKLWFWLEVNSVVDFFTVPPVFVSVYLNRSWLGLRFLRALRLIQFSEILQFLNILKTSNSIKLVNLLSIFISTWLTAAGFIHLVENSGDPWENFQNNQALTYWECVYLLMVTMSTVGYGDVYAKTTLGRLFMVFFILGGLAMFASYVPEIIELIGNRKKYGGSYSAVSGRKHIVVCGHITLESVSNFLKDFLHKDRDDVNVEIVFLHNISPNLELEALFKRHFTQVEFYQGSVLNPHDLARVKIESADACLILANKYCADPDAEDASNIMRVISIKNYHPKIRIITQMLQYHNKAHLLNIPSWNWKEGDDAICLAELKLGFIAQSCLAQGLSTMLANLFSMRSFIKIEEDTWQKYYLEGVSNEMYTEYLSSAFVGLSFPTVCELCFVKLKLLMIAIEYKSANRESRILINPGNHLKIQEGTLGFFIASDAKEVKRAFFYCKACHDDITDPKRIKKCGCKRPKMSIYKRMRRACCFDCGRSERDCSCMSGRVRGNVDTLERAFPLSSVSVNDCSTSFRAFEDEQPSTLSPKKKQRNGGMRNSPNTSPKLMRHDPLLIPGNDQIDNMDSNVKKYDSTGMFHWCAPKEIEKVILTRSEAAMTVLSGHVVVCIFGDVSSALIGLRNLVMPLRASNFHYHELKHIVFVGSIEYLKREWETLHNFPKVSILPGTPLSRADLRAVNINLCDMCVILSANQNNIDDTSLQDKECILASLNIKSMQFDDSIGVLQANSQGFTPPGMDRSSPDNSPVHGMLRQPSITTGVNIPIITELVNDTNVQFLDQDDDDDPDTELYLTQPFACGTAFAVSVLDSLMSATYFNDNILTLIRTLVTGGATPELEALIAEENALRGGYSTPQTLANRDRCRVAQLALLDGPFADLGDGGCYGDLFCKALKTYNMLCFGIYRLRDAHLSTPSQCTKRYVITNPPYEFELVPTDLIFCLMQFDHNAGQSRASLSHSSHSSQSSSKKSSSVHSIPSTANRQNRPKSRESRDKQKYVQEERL
- Sequence (Q86W47 whole entry partner): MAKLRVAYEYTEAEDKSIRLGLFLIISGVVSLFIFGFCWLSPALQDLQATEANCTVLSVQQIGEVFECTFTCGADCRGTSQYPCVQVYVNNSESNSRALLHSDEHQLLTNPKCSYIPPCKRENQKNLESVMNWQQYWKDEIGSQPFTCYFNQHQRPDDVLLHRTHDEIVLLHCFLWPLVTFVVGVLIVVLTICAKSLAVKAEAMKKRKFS
- Assay method text: Tl+-flux selectivity panel in HEK-293 cells: Maxi-K α1/β4
- Assay type: cell-based
- Test context: HEK293, 10 µM test compound, relative to control paxilline, read-out: Percent Inhibition ± SEM
Recorded inhibition at 10 µM for the following molecules
Enter your answer as a number in %; do not include the unit.

Recorded inhibition at 10 µM, per entry:
Req: Print Maxi-K α1/β4 (Homo sapiens) inhibition at 10 µM for `CN(Cc1cccc(F)c1)c1nc2c(c(=O)n(Cc3ccccc3)c(=O)n2C)n1C` .
Resp: 42

Req: With Maxi-K α1/β4 (Homo sapiens) as the test system, provide measured inhibition at 10 µM for this molecule: `Cn1c(N(Cc2ccccc2)CC2CC2)nc2c1c(=O)n(Cc1ccccc1)c(=O)n2C`
Resp: 12

Further cases:
Req: State the measured inhibition at 10 µM (Maxi-K α1/β4 (Homo sapiens)) of `CCCCN(Cc1ccccc1)c1nc2c(c(=O)n(Cc3ccccc3)c(=O)n2C)n1C`
Resp: 8.5

Req: Give reported inhibition at 10 µM for `COc1cccc(Cn2c(=O)c3c(nc(N(C)Cc4ccccc4)n3C)n(C)c2=O)c1` (Maxi-K α1/β4 (Homo sapiens))
Resp: 48
